Assay Target: human farnesyl transferase (FTase) (Homo sapiens, UniProt P49354+P49356)
Construct: comprising the cytosolic fraction of homogenized brain tissue; from tissue; host or cells: brain tissue, cytosolic fraction (crude FTase)
Measurement Protocol: in vitro inhibition of human FTase, farnesyl transferase (3H) scintillation proximity assay
Type: biochemical
Reported Conditions: crude FTase (cytosolic fraction of brain tissue), [3H]-FPP, Bt-KTKCVIS, 45 minute incubation at 37° C.; read-out: IC50 value for inhibiting farnesylation of the biotinylated KTKCVIS-peptide
pIC50: −log10 of the molar value.
Quantity Measured: pIC50

Q) # input compound: Cn1cncc1C(N)(c1ccc(Cl)nc1)c1ccc2c(c1)c(-c1cccc(Cl)c1)cc(=O)n2CC1CC1 (single isomer, unassigned; (+)) ; wanted: its pIC50
A) > 6.30
